- TARGET OR SYSTEM: Proto-oncogene tyrosine-protein kinase Src (Homo sapiens, UniProt P12931)
- Sequence (P12931 2-536 limits assumed): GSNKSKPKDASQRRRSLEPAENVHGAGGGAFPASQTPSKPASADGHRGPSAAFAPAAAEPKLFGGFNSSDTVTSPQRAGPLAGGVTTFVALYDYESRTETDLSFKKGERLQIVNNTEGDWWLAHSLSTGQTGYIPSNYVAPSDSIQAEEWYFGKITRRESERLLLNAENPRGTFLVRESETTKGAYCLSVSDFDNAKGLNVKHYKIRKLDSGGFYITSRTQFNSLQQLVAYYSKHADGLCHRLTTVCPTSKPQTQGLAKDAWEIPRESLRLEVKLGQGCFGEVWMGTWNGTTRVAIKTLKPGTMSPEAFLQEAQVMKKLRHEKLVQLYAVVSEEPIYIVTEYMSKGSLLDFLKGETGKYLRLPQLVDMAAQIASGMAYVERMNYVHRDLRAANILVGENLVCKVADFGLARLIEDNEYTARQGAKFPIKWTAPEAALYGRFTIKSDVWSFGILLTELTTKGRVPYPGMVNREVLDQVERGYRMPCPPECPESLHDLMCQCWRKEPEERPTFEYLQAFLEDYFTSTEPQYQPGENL
- ASSAY SUMMARY: Inhibition of Src Kinase at 5 mM ATP
pIC50: −log10 of the molar value.
REPORTED ENDPOINT: pIC50

>  <LINE NOTATION>
COc1cc2ncc(C#N)c(Nc3ccc(Cl)cc3Cl)c2cc1OC

>  <REPORTED ENDPOINT>
pIC50

>  <MEASURED RESULT>
6.57

$$$$

* * *

- TARGET OR SYSTEM: Proto-oncogene tyrosine-protein kinase Src (Homo sapiens)
- ASSAY SUMMARY: Inhibition of Src Kinase at 1 mM ATP
pIC50: −log10 of the molar value.
REPORTED ENDPOINT: pIC50

>  <LINE NOTATION>
COc1cc2ncc(C#N)c(Nc3ccc(Cl)cc3Cl)c2cc1OC

>  <MEASURED RESULT>
6.89

$$$$
